Where these numbers come from: PubChem BioAssay (NCI)

Assay: NCI Yeast Anticancer Drug Screen. Data for the sgs1 mgt1 strain (AID 161)
Conditions: S. cerevisiae sgs1 mgt1 strain, at 50.0 µM (retest, dose inferred, filed as 5.0)
Compounds without any hit were thinned out: in the full panel of roughly 79,000, 15% have a hit. The source made the active and inactive calls. No stated cut-off is given here; in the data, active means growth inhibition above about 70%; inactive means the rest.
API: response.call in y = active, n = inactive

# outcome recorded in this test, key = "CC(=O)O[C@@H]1[C@@H](O)[C@H]2O[C@@H]3C=C(C)C(=O)[C@@H](O)[C@]3(CO)[C@]1(C)[C@]21CO1" y

Another compound: CSCCC([NH-])C(=O)O.CSCCC([NH-])C(=O)O.[Zn+2] (stereo not given) n

Another compound: O=C1CN2CCCCC2CN1 (stereo not given) n

Another compound: "N#C[S-].[La+3].c1ccc(-c2ccccn2)nc1.c1ccc(-c2ccccn2)nc1.c1ccc(-c2ccccn2)nc1" y

Another compound: "CCCCCCCCCCCCCC(=O)[O][Hg][c]1ccccc1" y

Another compound: CCCCCCCCCCCCCCCCOC[C@@H](COC(c1ccccc1)(c1ccccc1)c1ccccc1)O[P+](=S)OC (stereo not given in full) n

Another compound: "c1cc[c]([Pb]([S]c2nc3ccccc3[nH]2)([c]2ccccc2)[c]2ccccc2)cc1" y

Another compound: C[N+](C)(C)CC1CCCC1=O (stereo not given) n

Another compound: "Cc1cc2c(cc1O)C(C)(C)CCC2(C)C" y

Another compound: "COc1cc(/C=C(/C)[N+](=O)[O-])c([N+](=O)[O-])cc1OC" n
